Target: T1, PepA-H6 (Escherichia coli, UniProt P68767 1-503)
T1 sequence: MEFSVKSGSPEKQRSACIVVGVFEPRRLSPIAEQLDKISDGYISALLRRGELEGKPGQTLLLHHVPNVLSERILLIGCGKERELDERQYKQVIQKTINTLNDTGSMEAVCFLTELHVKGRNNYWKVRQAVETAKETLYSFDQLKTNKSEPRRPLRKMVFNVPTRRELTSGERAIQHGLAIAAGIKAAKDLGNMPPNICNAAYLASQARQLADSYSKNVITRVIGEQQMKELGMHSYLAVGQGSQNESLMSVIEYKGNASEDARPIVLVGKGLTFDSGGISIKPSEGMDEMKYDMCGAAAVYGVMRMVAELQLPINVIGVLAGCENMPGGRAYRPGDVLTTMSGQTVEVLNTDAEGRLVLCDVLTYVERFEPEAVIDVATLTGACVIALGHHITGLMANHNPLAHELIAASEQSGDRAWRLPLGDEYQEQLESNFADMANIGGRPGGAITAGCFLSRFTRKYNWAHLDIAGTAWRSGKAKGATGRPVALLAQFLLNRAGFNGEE
Assay: filter binding; 75 mM Tris-HCl pH 7.5, 0.4 mM spermidine, 0.1 mM MgCl2, 50 mM NaCl, 0.5 mM EDTA, 0.25 mM DTT, 6% glycerol; 10 min at room temperature; 50 fmol RNA in 60 µL, protein 0-10 µM
Details: protein: recombinant; tags: C-terminal His6; chain copies: 6; label: 5'-32P (printed as [31]P); hairpin
recorded metric: Kd (nM)

binder | recorded metric | reading
GCUCUAGAGCAUUAUGUUCAGAUAAGG (structured_RNA) [hairpin] | Kd | 600
